# System: Saccharomyces cerevisiae
# Protocol description: protein stability index of tFT-peptide fusion (C-terminal peptide) (PSI (0-1 scale)); higher = more stable (slower turnover)
# Setup conditions: genetic background: wild type; temperature: 30 C
Readout label: protein stability index
Please reply with the value in numeric form only.

PHVKLFETTSGL [IRC5 C-terminal 12 aa] | 0.712
EAQSARNEKPLK [COS8 C-terminal 12 aa] | 0.691
TEEMKDAEEMKQ [RIX7 C-terminal 12 aa] | 0.661
IHDFPKSHIVDF [IKI3 C-terminal 12 aa] | 0.733

// query If you can, please state the reported protein stability index value of VNGELKYVKPED [AFT1 C-terminal 12 aa] .
// result 0.691

// query If you can, please state the reported protein stability index value of ALKKAARQVKKE [IFA38 C-terminal 12 aa] .
// result 0.671

// query If you can, please state the reported protein stability index value of NIATIASERSRP [YPL102C C-terminal 12 aa] .
// result 0.683

// query If you can, please state the reported protein stability index value of NRVPKWMKLSKK [UBX4 C-terminal 12 aa] .
// result 0.679

// query If you can, please state the reported protein stability index value of NGWHELALPQSR [SWM1 C-terminal 12 aa] .
// result 0.705

Every entry's value here was drawn from the supplement of paper PMC10724198.
